Cited source for all entries: PubChem BioAssay (NCI)

tested on: OVCAR-4 ovarian; assay: NCI-60 one-dose screen, 48 h (100 = growth as untreated, 0 = no growth, -100 = all killed); conditions: 10 µM unless noted
Compounds without any hit were thinned out: in the full panel of roughly 83,000, 20% have a hit.
Use 1 (yes) when the recorded growth is no lower than 70%; use 0 (no) when it is lower.

Take a look at these entries with their results.
compound	label
O=C1C=C(Nc2ccccc2)c2ncccc2C1=O	0 (no)
CC1(C)C(N)=Nc2cc(OCCCCN3Cc4ccccc4C3)c(OCC3CC3)cc21	1 (yes)
CC12CCC(C(=O)CC1=O)C2(C)C (stereo unspecified)	1 (yes)
CCCN1C(=O)/C(=c2\sc3n(c2=O)C2C(NN=3)N(CC)C(=O)N2CC)c2ccccc21 (stereo unspecified)	0 (no)

Has N=C(N)c1ccc(-c2ccc(-c3ccc(Cl)c(Cl)c3)s2)cc1 a recorded growth greater than or equal to 70%?
0 (no)

====

Some molecules, each annotated with its measured growth.
test system: SR leukemia; experiment: NCI-60 one-dose screen, 48 h (100 = growth as untreated, 0 = no growth, -100 = all killed); conditions: 10 µM unless noted
Compounds without any hit were thinned out: in the full panel of roughly 83,000, 20% have a hit. Calls of active or inactive are those of the source. Rule for the calls: active = growth percent below 10; inactive = the rest.

molecule	growth
N=C(N)SCc1c2ccccc2c(CSC(=N)N)c2ccccc12	-11.1% (active)

Consider the molecule shown here: O=C1C(=C(O)c2ccccc2)C(=O)c2ccccc21 What is its recorded growth?
115% (inactive)

Same again, this time with CCN(c1cc(-c2ccc(CN3CCC(/C=C/S(=O)(=O)c4ccccc4)CC3)cc2)cc(C(=O)NCc2c(C)cc(C)[nH]c2=O)c1C)C1CCOCC1
17.9% (inactive)

# repeat for Cn1ccnc1CN1CCSC(C(=O)Nc2ccccc2)C1 (stereo not given)
96.8% (inactive)

Repeat for the following molecule: CN1Cn2c(ccc2C(F)(F)F)C(=O)CS1(=O)=O
109% (inactive)

Queued: N#C/C(=C\c1ccccc1Cl)c1cc2ccccc2[nH]1
60% (inactive)

Continue with Cc1ccc(/C=C2\COc3ccc(O)c(O)c3C2=O)cc1
18% (inactive)

Please give the result for Cc1ccc(C(=O)N(CCCN)[C@@H](c2nc3cc(Cl)ccc3c(=O)n2Cc2ccccc2)C(C)C)cc1 too.
-32% (active)

Also check COc1ccc(Cl)cc1Nc1nc(C(F)(F)F)ccc1C(=O)N/N=C/c1ccc(N(C)C)cc1
7.32% (active)

Also CC1=CC=C(NC(=O)/C=C/c2ccccc2)CC1Nc1nccc(-c2cccnc2)n1 (stereo not given) , if possible.
15.3% (inactive)

====

tested on: HCT-116 colon; experiment: NCI-60 one-dose screen, 48 h (100 = growth as untreated, 0 = no growth, -100 = all killed); conditions: 10 µM unless noted
Compounds without any hit were thinned out: in the full panel of roughly 83,000, 20% have a hit.
Lab note - cut at 70% for growth: y if strictly below, n if not.

compound	label
COc1ccc(/C(C)=C(\c2ccc(OCCN3CCOCC3)cc2)c2ccc(OC(=O)C3CCCCC3)cc2)cc1	n

hey, is growth for O=S(=O)(Nc1cc(Sc2cccc3cccnc23)c(O)c2ccccc12)c1ccc(F)cc1 lower than 70% or not?
y

Also Brc1ccc(/C=C(/C2=NCCN2)n2ccc3ccccc32)cc1 ?
y

What would you report for N#C/C(=C\c1ccc(Br)cc1)n1nnc2c(F)cccc21 ?
y
